- Tested on: MT-4 cells
- Assay Text: Cytotoxicity with respect to non-infected MT-4 cells (MTT method)
- Type: cell-based
- Measurement Parameters: AZT, footnote: units are μM, 5 days, read-out: CC50 (50% cytotoxic concentration)
Result Type: CC50 (µM)

[[record]]
compound = "Cc1cn([C@H]2C[C@H](N=[N+]=[N-])[C@@H](CO)O2)c(=O)[nH]c1=O [AZT, 3'-azido-2',3'-dideoxythymidine, reference compound]"
assay_value = 10.8


All figures here come from patent US5498602A.
